- protocol: Microsomal stability
- Assay type: in vitro ADME
- measurement.setup: human liver microsomes
In this section we review reported Mic. Stab. Human QH values for a set of compounds.

{"compound": "Cc1ncsc1-c1ccc([C@H](CCC(C)(C)CCN2CCC(c3ccc4c(c3)n(C3CCCC3)c3nc(=O)c5c(Br)cccc5n43)CC2)NC(=O)[C@@H]2C[C@@H](O)CN2C(=O)[C@@H](NC(=O)C2(F)CC2)C(C)(C)C)cc1", "result": "<24.400 <24.400%"}
{"compound": "Cc1ncsc1-c1ccc(C(CCC(C)CCN2CCC(c3ccc4c(c3)n(C3CCCC3)c3nc(=O)c5c(Br)cccc5n43)CC2)NC(=O)C2CC(O)CN2C(=O)C(NC(=O)C2(F)CC2)C(C)(C)C)cc1 (stereo not shown)", "result": "<24.400 <24.400 <24.400 <24.400%"}
{"compound": "Cc1ncsc1-c1ccc(CNC(=O)[C@@H]2C[C@H](O)CN2C(=O)[C@@H](NC(=O)C2(F)CC2)C(C)(C)C)c(OCCN2CCC(c3ccc4c(c3)n(C3CCCC3)c3nc(=O)c5c(Br)cccc5n43)CC2)c1", "result": "81.450%"}

Ask | Consider the compound `Cc1ncsc1-c1ccc([C@H](CCCCN2CCC(c3ccc4c(c3)n(C3CCCC3)c3nc(=O)c5c(Br)cccc5n43)CC2)NC(=O)[C@@H]2C[C@@H](O)CN2C(=O)[C@@H](NC(=O)C2(F)CC2)C(C)(C)C)cc1` and give its measured Mic. Stab. Human QH.
Reply | 24.800%
